Where a name gives a salt, the structure may show the parent alone.
ATTRIBUTE MEASURED: melting point

CCCN1CCC(c2cccc(F)c2F)CC1 (as salt: hydrochloric acid salt); 237 to 238 °C
CCCN1CCC(c2cccc(OC(F)(F)F)c2F)CC1 (as salt: hydrochloric acid salt); 221 to 222 °C
CCCN1CCC(c2cccc(Cl)c2Cl)CC1 (as salt: hydrochloric acid salt); 265 to 267 °C
CCN1CCC(c2cccc(C(F)(F)F)c2F)CC1 (as salt: hydrochloric acid salt); 235 to 237 °C
CN1CCC(c2cccc(C(F)(F)F)c2F)CC1 (as salt: hydrochloric acid salt); 260 to 261 °C

Task: Using the record for CCN1CCC(c2cccc(C#N)c2F)CC1 (as salt: oxalic acid salt) , state its measured melting point.
Result: 156 to 158 °C
